Experiment: qHTS Screen of the MIPE 4.0 Collection Against Ewings Sarcoma (TC32) (AID 1259256); note: nearly all actives have a fitted effect of over 45% in size
Details: TC32 Ewing sarcoma viability, CellTiter-Glo, 48 h; series mostly up to 45.8 µM
Records with an inconclusive call do not appear. Calls of active or inactive are those of the source. Calls come from the whole dose curve; as a rule, active = well fitted inhibition curve with a large enough effect; inconclusive = small, poorly fitted or top-dose-only effect; inactive = no such curve, though single readings can be large or run the other way.
Outcome (select one): active, inactive

Take a look at these entries with their results.
>  <compound>
NCCCC(N)(C(=O)O)C(F)F (stereo not given)

>  <labelValue>
inactive

$$$$
>  <compound>
O=C1CCc2cc(OCCCCc3nnnn3C3CCCCC3)ccc2N1

>  <labelValue>
inactive

$$$$

Req: Hey, what did the test say about COc1ccc(-c2oc3cc(OC)ccc3c2C(=O)c2ccc(C#N)cc2)cc1 ?
Resp: inactive

Req: What was the test verdict on CC[C@H](Nc1ncnc2nc[nH]c12)c1nc2cccc(F)c2c(=O)n1-c1ccccc1 ?
Resp: active

Req: Recorded test call requested for O=c1ncn2nc(Sc3ccc(F)cc3F)ccc2c1-c1c(Cl)cccc1Cl
Resp: inactive
